IC50 listing for selected compounds.
molecular target: Tyro3 (Homo sapiens (Human)); test: biochemical; conditions: read-out: Tyro3IC50
Sequence (Q06418 41-890): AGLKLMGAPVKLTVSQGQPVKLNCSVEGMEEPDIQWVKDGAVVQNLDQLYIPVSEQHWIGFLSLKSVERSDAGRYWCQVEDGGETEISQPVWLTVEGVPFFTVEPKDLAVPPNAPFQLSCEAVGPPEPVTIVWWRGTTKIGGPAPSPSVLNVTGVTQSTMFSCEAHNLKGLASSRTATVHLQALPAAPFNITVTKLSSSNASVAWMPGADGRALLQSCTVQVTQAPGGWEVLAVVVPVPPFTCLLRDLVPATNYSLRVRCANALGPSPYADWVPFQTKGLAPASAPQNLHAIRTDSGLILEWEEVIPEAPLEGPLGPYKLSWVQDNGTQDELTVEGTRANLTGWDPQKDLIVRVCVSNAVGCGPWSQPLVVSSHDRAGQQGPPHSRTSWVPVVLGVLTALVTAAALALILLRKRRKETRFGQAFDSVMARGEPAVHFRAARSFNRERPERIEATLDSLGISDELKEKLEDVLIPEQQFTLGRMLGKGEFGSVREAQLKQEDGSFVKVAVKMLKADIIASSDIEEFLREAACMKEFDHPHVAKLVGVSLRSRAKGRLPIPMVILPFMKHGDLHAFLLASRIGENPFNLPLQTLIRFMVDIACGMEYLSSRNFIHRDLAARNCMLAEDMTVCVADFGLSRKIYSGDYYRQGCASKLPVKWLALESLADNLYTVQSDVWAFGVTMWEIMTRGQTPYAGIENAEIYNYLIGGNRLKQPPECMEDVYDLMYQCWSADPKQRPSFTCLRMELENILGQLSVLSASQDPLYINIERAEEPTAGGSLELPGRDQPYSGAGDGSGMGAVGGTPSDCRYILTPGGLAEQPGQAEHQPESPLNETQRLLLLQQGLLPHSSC

Some compounds with known IC50 results, for comparison:
COMPOUND | ASSAY TARGET | VALUE MEASURED
NCC1(c2cccc(-c3nc(NC4CCC4)nc4[nH]ccc34)c2)Cc2ccccc2C1 | Tyro3 (Homo sapiens (Human)) | < 0.5 µM
Cn1nccc1C(=O)NCC1(c2cccc(-c3ncnc4[nH]ccc34)c2)Cc2ccccc2C1 | Tyro3 (Homo sapiens (Human)) | > 3 µM
CC(O)C1CCN(c2ccc3c(c2)CC(CN)(c2cccc(-c4ncnc5[nH]ccc45)c2)C3)C1 (centres unmarked) | Tyro3 (Homo sapiens (Human)) | > 3 µM
NCC1(c2cc(-c3nc(Nc4cccc(CN5CCOCC5)c4)nc4[nH]ccc34)ccn2)Cc2ccccc2C1 | Tyro3 (Homo sapiens (Human)) | < 0.5 µM

IN: Any idea what IC50 was measured for NCC1(c2cccc(-c3ncnc4[nH]ccc34)c2)Cc2ccc(N3CCC(O)C3)cc2C1 (centres unmarked) ?
OUT: > 3 µM

IN: Any idea what IC50 was measured for NCC1(c2cccc(-c3ncnc4[nH]ccc34)c2)Cc2ccc(N3CCCC3)cc2C1 (centres unmarked) ?
OUT: > 3 µM

IN: Any idea what IC50 was measured for "O=C(NCC1(c2cccc(-c3ncnc4[nH]ccc34)c2)Cc2ccccc2C1)N1CCOCC1" ?
OUT: > 3 µM

IN: Any idea what IC50 was measured for COCC1(Nc2ccc3c(c2)CC(CN)(c2cccc(-c4ncnc5[nH]ccc45)c2)C3)CC1 (centres unmarked) ?
OUT: > 3 µM
